Documented TGI across a set of molecules
# System: SF-268 CNS
# ASSAY DETAILS: NCI tumour cell line growth inhibition, 48 h
REPORTED METRIC: TGI (µM)

- COc1cccc2c1ccc1nc3cccc(C(=O)N[C@H](C)CN(C)C)c3nc12: 0.916
- COc1nc(C#CC2(O)CCCCC2)nc(OC)n1: 40.7
- CC(C)C1=CC23CCC4C(C)(C(=O)O)CCCC4(C)C2CC1C1C(=O)N(c2ccccc2N2C(=O)C4C5CC6C7(C)CCCC(C)(C(=O)O)C7CCC6(C=C5C(C)C)C4C2=O)C(=O)C13 (centres undefined): 16.5
- CCC(C)C1=C(OC(C)=O)[N+]2([O-])Oc3ccc(-c4c(OC(C)=O)c(OC(C)=O)c(-c5ccc(OC(C)=O)cc5)c(OC(C)=O)c4OC(C)=O)cc3OC2(C(C)CC)C(=O)N1OC(C)=O (centres undefined): 37.6

----------
# Test system: SN12C renal
# ASSAY DETAILS: NCI tumour cell line growth inhibition, 48 h; in the data active = GI50 below about 0.43 µM; inactive = the rest
Outcome codes: True (active), False (inactive)

• COC(=O)[C@@]12OC[C@]34[C@H]([C@@H](O)[C@@H]1O)[C@@]1(C)[C@H](O)C(=O)C=C(C)[C@@H]1C[C@H]3OC(=O)C(OC(C)=O)[C@@H]24 (some centres undefined) = True
• C[C@]12CCc3sc(NCCc4ccccc4)nc3C1=CC[C@@H]1[C@@H]2CC[C@]2(C)C(=O)CC[C@@H]12 = False
• Cc1cc(C(=C2C=CC(=Nc3ccccc3)C=C2)c2ccc(Nc3ccccc3)cc2)ccc1N = True
• CCC1CN2C(=N1)c1ccccc1-c1cc(Cl)ccc12 (centres undefined) = False
• O=C(Cn1c(=O)c(-c2ccccc2)nc2ccccc21)Nc1ccc(F)cc1 = False
• COc1cccc(-c2nn(-c3ccccc3)cc2-c2ccnc(NCCCNC(=O)Nc3ccc(Cl)c(Cl)c3)c2)c1 = False
• COc1ccc(-c2nc(-c3ccccc3)c(-c3ccccc3)[nH]2)cc1OC1CCCC1 = False
• C1COCCN1.C1COCCN1.NC1CCCCC1N.[Cl-].[Pt+2] (centres undefined) = False
• C=CCC1(O)c2ccccc2C(=O)c2c(NCCN(CC(=O)OCC)CC(=O)OCC)cccc21 (centres undefined) = False

----------
# System: UACC-62 melanoma
# ASSAY DETAILS: NCI tumour cell line growth inhibition, 48 h
Documented TGI across a set of molecules
REPORTED METRIC: TGI

- CCCCCCCCCCCCCCCCOCC(CC(F)(F)P(=O)(OCC)OCC)OC(C)=O (stereo not drawn): 30.2 µM
- O=C1C2C3C=C4c5ccccc5N(c5ccccc5)C4(C2C(=O)N1c1ccc(Cl)cc1)[C@H]1C(=O)N(c2ccc(Cl)cc2)C(=O)[C@@H]31 (stereo partly drawn): > 100 µM
- CC1CN(c2ccc(Cl)cc2)CC(C)OC(=O)O1 (stereo not drawn): > 100 µM
- O=C(NC(=O)c1cn(CCN(CCO)C(=O)NCCCCCCNC(=O)N(CCO)CCn2cc(C(=O)NC(=O)OCc3ccccc3)c(=O)[nH]c2=O)c(=O)[nH]c1=O)OCc1ccccc1: > 100 µM
- C[C@@H](c1ccccc1)N1CN(C(=O)OCc2ccccc2)C(C)(C)CC1=O: > 100 µM
- CC(C)=CCC/C(=C/CC/C(=C\CCc1ccoc1)C(=O)O)C(=O)O: > 100 µM
- O=C(c1ccc(Cl)cc1)N(C(=O)N1CCC(c2ccccc2)CC1)c1ccccc1: > 100 µM
- Nc1ccccc1S(=O)(=O)c1ccccc1: > 100 µM
- O=C(NCCNCCCNC(=O)c1cc(-c2ccccc2)nc2ccccc12)c1cccc(O)c1O: 12.1 µM
- CCCNC(=O)CCC(C)C1CCC2C3C(C[C@H](OC(C)=O)[C@]12C)[C@@]1(C)CCC2(C[C@H]1C[C@H]3OC(C)=O)OOC1(CC[C@]3(C)C4C[C@H](OC(C)=O)[C@]5(C)C(C(C)CCC(=O)NCCC)CCC5C4[C@H](OC(C)=O)C[C@@H]3C1)OO2 (stereo partly drawn): > 100 µM
- C=CCC1(O)c2ccccc2C(=O)c2c(NCCN(CC(=O)OCC)CC(=O)OCC)cccc21 (stereo not drawn): > 100 µM
- CC1CC2OC(=O)C(C)C2CC2(C)C(OC3OC(CO)C(O)C(O)C3O)OCCC12 (stereo not drawn): 30.6 µM
- COC(=O)C1CN=CN1CCc1ccccc1 (stereo not drawn): > 100 µM

----------
Documented TGI across a set of compounds
# Tested on: K-562 leukemia
# ASSAY DETAILS: NCI tumour cell line growth inhibition, 48 h
REPORTED METRIC: TGI

* C=CCC1(O)c2ccccc2C(=O)c2c(NCCN(CC(=O)OCC)CC(=O)OCC)cccc21 (stereo unspecified) | > 100 µM
* CCOP(=O)(OCC)C(Nc1ccc(Br)cc1)c1cccc([N+](=O)[O-])c1 (stereo unspecified) | 38.6 µM
* CN[C@H](C#Cc1c(F)ccc2c1/C(=C/c1[nH]ccc1OC)C(=O)N2)CO | 5.89 µM
* COc1ccc(N=Cc2ccc(N(CCC#N)S(=O)(=O)c3ccccc3)cc2)cc1 | > 100 µM
* CN1CNc2nc(N)n(C)c(=O)c2C1 | > 10 µM
* COc1cccc2c1Cc1cc(-c3ccccc3)[n+](C)n1-2 | > 100 µM
* O=c1oc(Cl)c(Cl)c2ccccc12 | 70.5 µM
* CCOC1=C2C(=O)OC(=O)C2C2CCCCC2=C1 (stereo unspecified) | > 100 µM
* c1ccc(CN2CCC3(CC2)SSC2(CCN(Cc4ccccc4)CC2)S3)cc1 | > 100 µM
* COC(=O)c1sc(=S)sc1SCc1ccc(CSc2sc(=S)sc2C(=O)OC)cc1 | > 100 µM
* COc1cccc(C2=C(c3c(C)n(C)c4ccccc34)C(=O)NC2=O)c1 | > 25 µM
* O=C(/C=C/c1ccc(O)c(-c2cc(C(=O)/C=C/c3ccc(O)cc3)c(O)cc2O)c1)c1ccc(O)cc1O | 35.1 µM
* CCn1c(SCC(=O)NNC(=S)Nc2ccc([N+](=O)[O-])cc2)nc2ccccc2c1=O | > 100 µM
* Fc1ccc(C(OCCN2CCC3CCC(C2)N3C/C=C/c2ccco2)c2ccc(F)cc2)cc1 (stereo unspecified) | 20.7 µM
* CCOC(=O)c1cc2c(n1Cc1cccc(OC)c1)-c1oncc1CCC2 | > 100 µM
* Cc1c(N2C(=O)CS(=O)(=O)C2c2cccc(Oc3ccccc3)c2)c(=O)n(-c2ccccc2)n1C (stereo unspecified) | > 100 µM
* O=C1c2ccccc2OP(=O)(OCC(F)(F)F)OC1(C(F)(F)F)C(F)(F)F (stereo unspecified) | > 100 µM
* NC(=O)c1c(NC(=O)c2ccccn2)sc2c1CCC(=O)C2 | > 100 µM
* Cc1ccc(C(CC(=O)c2ccccc2)C2C(=O)NC(=O)NC2=O)cc1 (stereo unspecified) | > 100 µM
* O=C(c1ccc(Cl)cc1)N(C(=O)N1CCC(c2ccccc2)CC1)c1ccccc1 | > 100 µM
* COc1ccc2c(c1)[nH]c1c(/C=C/c3ccccc3)nccc12 | > 100 µM

----------
# Tested on: UACC-62 melanoma
# ASSAY DETAILS: NCI tumour cell line growth inhibition, 48 h
REPORTED METRIC: TGI

- CCCCc1ccc(Nc2nc(SC)c3[nH]cnc3n2)cc1: > 100 µM
- O=C(Nc1cccc(-n2cc(-c3ccncc3)c(-c3ccc(Cl)c(O)c3)n2)c1)c1ccc(N2CCOCC2)c(C(F)(F)F)c1: 18.4 µM
- COc1cc(CO)c(CC(=O)NCCCc2ccccc2)cc1OC: > 100 µM
- O=S(=O)(Nc1ccc(Br)c(Cl)c1)c1ccc(-c2cnc(C3CC3)o2)cc1: 13.6 µM
- Clc1cc2c(cc1Cl)CC(NCCN1CCCC1)CC2 (stereo not given): 8.15 µM

----------
# Tested on: HT29 colon
# ASSAY DETAILS: NCI tumour cell line growth inhibition, 48 h
REPORTED METRIC: TGI

- CC(C)OCC1CC(CC(=O)Nc2nncs2)C(=O)O1 (stereo unspecified): > 100 µM
- Clc1cc(Cl)cc(C=NC23CC4CC(CC(C4)C2)C3)c1: > 10 µM
- COc1cc(Nc2c(C#N)cnc3cc(OCCCN4CCN(C)CC4)c(OC)cc23)c(Cl)cc1Cl: 5.38 µM
- COc1cccc(-c2nn(-c3ccccc3)cc2-c2ccnc(NCCCNC(=O)Nc3ccc(Cl)c(Cl)c3)c2)c1: 5.19 µM
- OCC1C(/C=C/c2ccoc2)ON2CCCC12 (stereo unspecified): > 100 µM
- N#CC(=C1CCN(CCCC(=O)c2ccc(F)cc2)CC1)c1ccccc1: > 100 µM
- CC(C)(C)c1cc(C2=NNC(c3ccccc3)C2)cc(C(C)(C)C)c1O (stereo unspecified): 50.3 µM
- C[C@]12CCC(=O)C=C1CC[C@@H]1C2CC[C@]2(C)Nc3c(cnn3-c3ccccc3)CC12 (stereo partly specified): > 100 µM
- CCCCc1ccc(Nc2nc(SC)c3[nH]cnc3n2)cc1: > 100 µM
- O=C(O/C(=C(/N=Nc1ccccc1)c1ccccc1)c1ccccc1)c1ccccc1: > 100 µM
- COc1ccc2c(=O)cc(-c3ccncc3)oc2c1OC: > 100 µM
